B1: LexA_(DBDwt)-SehB-WT [Salmonella enterica serotype Typhimurium] / itself (parent)
chain: MRTHRQMDATSAKKIVDTFSDAVKTVPLMGEDRNDNEYRRALALVEFLVDHDDLENPLFELLCARISEYEKHAPEFKALNQHLEKTPPGVSVLRTLMDQYGLKAADLANELGSKSNVSNILNGRRALTVNHIKALTQRFKLPADAFIE

variants of: B1; assay: LexA-based genetic system for homodimerization (sulA-lacZ reporter, E. coli SU101); details: with itself; LB broth at 37°C to an OD600 nm of 1.0; 1 mM IPTG; parent: 130; read off a plot
Readout label: response (U/mg)
Numbers only; they are read as U/mg.

Use these answered entries as a reference point.
>  <Residue codes>
MRTHRQMDATSAKKIVDTFSDAVKTVPLMGEDRNDNEARRALALVEFLVDHDDLENPLFELLCARISEYEKHAPEFKALNQHLEKTPPGVSVLRTLMDQYGLKAADLANELGSKSNVSNILNGRRALTVNHIKALTQRFKLPADAFIE [chain 1 Y38A]

>  <response, U/mg>
600

$$$$
>  <Residue codes>
MRTHRQMDATSAKKIVDTFSDAVKTVPLMGEDRNDNEYRRALALVEFLVDHDDLENPLFELLCARISEYEKHAPEFKALNQHLEKTPPGVSVLRTLMDQYGLKAADLANELGSKSNVSNILNGRRALTVNHIKAATQRFKLPADAFIE [chain 1 L135A]

>  <response, U/mg>
130

$$$$
>  <Residue codes>
MRTHRQMDATSAKKIVDTFSDAVKTVPLMGEDRNDNEYRRALALVEFLVDHDDLENPLFELLCARISEYEKHAPEFKALNQHLEKTPPGVSVLRTLMDQYGLKAADLANELGSKSNVSNILNGRRAATVNHIKALTQRFKLPADAFIE [chain 1 L127A]

>  <response, U/mg>
170

$$$$
>  <Residue codes>
MRTHRQMDATSAKKIVDTFSDAVKTVPLMGEDRNDNEYRRALALVEFLVDHDDLENPLFELLCARISEYEKHAPEFKALNQHLEKTPPGVSVLRTLMDQYGLKAADLANELGSKSNVSNILNGRRALTVNHIKALTQRFKLPADAAIE [chain 1 F146A]

>  <response, U/mg>
110

$$$$
>  <Residue codes>
MRTHRQMDATSAKKIVDTFSDAVKTVPLMGEDRNDNEYRRALALVEFLVDHDDLENPLFELLCARISEYEKHAPEFKALNQHLEKTPPGVSVLRTLMDQYGLKAADLANELGAKSNVSNILNGRRALTVNHIKALTQRFKLPADAFIE [chain 1 S113A]

>  <response, U/mg>
110

$$$$

Let me know recorded response for MRTHRQMDATSAKKIVDTFSDAVKTVPLMGEDRNDNEYRRALALVEFLVDHDDLENPLFELLCARASEYEKHAPEFKALNQHLEKTPPGVSVLRTLMDQYGLKAADLANELGSKSNVSNILNGRRALTVNHIKALTQRFKLPADAFIE [chain 1 I66A] , thanks.
680

Let me know recorded response for MRTHRQMDATSAKKIVDTFSDAVKTVPLMGEDRNDNEYRRALALVEFLVDHDDLENPAFELLCARISEYEKHAPEFKALNQHLEKTPPGVSVLRTLMDQYGLKAADLANELGSKSNVSNILNGRRALTVNHIKALTQRFKLPADAFIE [chain 1 L58A] , thanks.
650

Let me know recorded response for MRTHRQMDATSAKKIVDTFSDAVKTVPLMGEDRNDNEYRRALALVEFAVDHDDLENPLFELLCARISEYEKHAPEFKALNQHLEKTPPGVSVLRTLMDQYGLKAADLANELGSKSNVSNILNGRRALTVNHIKALTQRFKLPADAFIE [chain 1 L48A] , thanks.
770

Cited source for all entries: paper PMC7160566
